pKi: −log10 of the molar value.
// molecules with pKi on Kappa-type opioid receptor (Cavia porcellus), multi-source literature
Sequence (P41144 whole entry): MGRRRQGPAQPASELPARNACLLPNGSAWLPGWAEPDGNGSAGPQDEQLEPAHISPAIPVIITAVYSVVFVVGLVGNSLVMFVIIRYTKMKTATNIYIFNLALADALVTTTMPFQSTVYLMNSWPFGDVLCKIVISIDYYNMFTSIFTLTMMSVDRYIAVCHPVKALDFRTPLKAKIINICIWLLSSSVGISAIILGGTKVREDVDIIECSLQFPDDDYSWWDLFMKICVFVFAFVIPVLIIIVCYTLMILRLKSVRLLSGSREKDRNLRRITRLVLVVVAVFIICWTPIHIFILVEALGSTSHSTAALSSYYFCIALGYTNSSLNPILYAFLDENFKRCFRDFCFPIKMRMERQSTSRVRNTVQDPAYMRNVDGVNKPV

NC(CSSCC(N)C(=O)O)C(=O)O (stereo not given); < 5.00

Need pKi of `COc1cc(OC)c(C(=O)CCCCN2CCC3(CC2)NC(=O)NC3=O)cc1NS(=O)(=O)c1ccc(C(F)(F)F)cc1` , thanks. < 5.00

// same read-out, input: FCC[C@H]1Cc2ccccc2C2(CCC(N3CCN(C4CCCCC4)CC3)CC2)O1 (stereo not given in full) < 6.00

Also check `N[C@H](CCS(=O)O)C(=O)O` < 5.00

Input `N[C@H](CS(=O)(=O)O)C(=O)O` < 5.00
